- Test system: MPNST multicellular tumor spheroids, viability % test/control
- Protocol text: Anticancer human tumor MPNST cell line growth inhibition;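 note: luminescence signal used as surrogate for viable cell amount; spheroids exposed to agents for seven days after three days of growth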
- Condition parameters: second compound 30 pM; first compound 0.316 µM; stronger effect = lower value
Documented viability, T/C across a set of compounds
Give a bare numeral; the unit % is implied.

Query: So what's the measured viability, T/C for this one? Cc1cc(C)c(CNC(=O)c2cc(-c3ccc(CN4CCOCC4)cc3)cc3c2cnn3C2CCCC2)c(=O)[nH]1 + COc1cc2c(cc1O)CCNC21CSC2c3c(OC(C)=O)c(C)c4c(c3C(COC1=O)N1C(O)C3Cc5cc(C)c(OC)c(O)c5C(C21)N3C)OCO4
Result: 85.2

Source listed as PubChem BioAssay AID1845205.
